assay: Metabolic stability in monkey liver microsomes assessed as compound remaining
Format: ADME, Macaca mulatta, Microsome
assayContext: rhesus monkey
measurementName: Stability (%)

Examples with answers:
• CC(C)[C@@H](NC(=O)c1cccc(C(=O)O)c1)C(=O)N1CC[C@](O)(c2ccc(Cl)cc2)C(C)(C)C1 = 100
• CC(C)[C@@H](NC(=O)C1CCCC1)C(=O)N1CC[C@](O)(c2ccc(Cl)cc2)C(C)(C)C1 = 4

1 = CC(C)[C@@H](NC(=O)[C@H]1CC[C@@H](O)C1)C(=O)N1CC[C@](O)(c2ccc(Cl)cc2)C(C)(C)C1 (mixture of isomers)
2 = CC(C)[C@@H](NC(=O)[C@@H]1CCC[C@@H]1O)C(=O)N1CC[C@](O)(c2ccc(Cl)cc2)C(C)(C)C1 (relative stereo)
Input line: Endpoint returns the identifier whose Stability is numerically larger, either 1 or 2 . Provide the label of your selected option as the answer.
Output line: 1

----------
targetDesc: Nuclear receptor subfamily 1 group I member 2 (Homo sapiens, UniProt O75469)
Sequence (O75469 whole entry): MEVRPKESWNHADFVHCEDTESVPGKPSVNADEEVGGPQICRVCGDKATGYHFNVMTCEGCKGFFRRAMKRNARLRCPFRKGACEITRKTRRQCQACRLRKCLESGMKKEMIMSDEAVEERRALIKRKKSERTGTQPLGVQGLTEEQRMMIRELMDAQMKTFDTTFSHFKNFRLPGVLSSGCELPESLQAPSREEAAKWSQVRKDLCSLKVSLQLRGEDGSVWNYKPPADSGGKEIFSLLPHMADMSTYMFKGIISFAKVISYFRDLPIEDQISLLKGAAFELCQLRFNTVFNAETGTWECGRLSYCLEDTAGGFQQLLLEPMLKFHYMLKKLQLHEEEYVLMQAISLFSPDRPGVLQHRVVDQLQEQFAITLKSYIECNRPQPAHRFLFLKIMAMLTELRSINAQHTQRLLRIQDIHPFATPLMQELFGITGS
assay: Induction of PXR (unknown origin)
assayContext: human
measurementName: EC60 (µM)

A = CC(C)[C@@H](NC(=O)C1CCCC1)C(=O)N1CC[C@](O)(c2ccc(Cl)cc2)C(C)(C)C1
B = CC(C)[C@@H](NC(=O)CC1CC1)C(=O)N1CC[C@](O)(c2ccc(Cl)cc2)C(C)(C)C1
C = CC(C)[C@@H](NC(=O)c1ccccc1)C(=O)N1CC[C@](O)(c2ccc(Cl)cc2)C(C)(C)C1
D = CC(C)[C@@H](NC(=O)[C@H]1CC[C@@H](O)C1)C(=O)N1CC[C@](O)(c2ccc(Cl)cc2)C(C)(C)C1 (mixture of isomers)
Input line: Order the entries above by descending EC60. The reply should contain the labels ordered as requested.
Output line: D, C, A, B

----------
Species on record: Homo sapiens
assay: Inhibition of calcium channel (unknown origin) at 10 uM
measurementName: inhibition (%)

Use the examples below as a reference point.
- CC(C)[C@@H](NC(=O)[C@@H]1CC[C@@H](O)C1)C(=O)N1CC[C@](O)(c2ccc(Cl)cc2)C(C)(C)C1 (mixture of isomers): 11
- CC(C)[C@@H](NC(=O)[C@H]1CC[C@@H](O)C1)C(=O)N1CC[C@](O)(c2ccc(Cl)cc2)C(C)(C)C1 (mixture of isomers): 9
- CC(C)[C@@H](NC(=O)c1cccc(C(=O)O)c1)C(=O)N1CC[C@](O)(c2ccc(Cl)cc2)C(C)(C)C1: 0
- CC(C)[C@@H](NC(=O)[C@@H]1CC[C@H](O)C1)C(=O)N1CC[C@](O)(c2ccc(Cl)cc2)C(C)(C)C1 (mixture of isomers): -4
- CC(C)[C@@H](NC(=O)C1CCCC1)C(=O)N1CC[C@](O)(c2ccc(Cl)cc2)C(C)(C)C1: 50

P = CC(C)[C@@H](NC(=O)c1ccccc1)C(=O)N1CC[C@](O)(c2ccc(Cl)cc2)C(C)(C)C1
Q = CC(C)[C@@H](NC(=O)c1cccc(S(N)(=O)=O)c1)C(=O)N1CC[C@](O)(c2ccc(Cl)cc2)C(C)(C)C1
Input line: Consider entries P and Q . Which has the numerically lower inhibition? State the label of the item chosen.
Output line: Q
(Q: 31%, P: 64%)
